Hey, just so you know, these numbers are from the supplement of paper PMC13386468.

system: UniProt Q8IJP8
testName: IC50 for competition of protein binding to Kinobeads;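 further: native unpurified kinases from lysate captured on beads bearing immobilized kinase inhibitors, with bead-bound kinases quantified by mass spectrometry across compound doses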
setupConditions: assay detail: Kinobeads competition in P. falciparum blood-stage lysate
pIC50: −log10 of the molar value.
metricName: pIC50

Give pIC50 for the following molecule: O=c1[nH]c2ccc(Cl)cc2c(NC2CN3CCC2CC3)c1-c1nc2ccccc2[nH]1 (stereo unspecified) [CHIR-124]
< 4.70

* * *

system: UniProt Q8IDK7
testName: IC50 for competition of protein binding to Kinobeads
setupConditions: assay detail: Kinobeads competition in P. falciparum blood-stage lysate
pIC50: −log10 of the molar value.
metricName: pIC50

Tell us which pIC50 value is on record for O=c1[nH]c2ccc(Cl)cc2c(NC2CN3CCC2CC3)c1-c1nc2ccccc2[nH]1 (stereo unspecified)
< 4.70
